# TEST SUMMARY: Gamma radiation (25-40 kGy) and 5-month storage stability of composition components in HDPE bottles
# Type: physicochemical
# CONDITION DETAILS: HDPE bottle, T = 5 months, not exposed to gamma radiation
Please go through the items and note down their % LC, Unexposed.
Give the quantity in % LC, number only.

Consider the compound `CN(C)c1ccc2nc3ccc(=[N+](C)C)cc-3sc2c1` and give its measured % LC, Unexposed. 93.4

# query: % LC, Unexposed of entry CCCOC(=O)c1ccc(O)cc1 [Propylparaben, propyl-para-hydroxybenzoate] 75.3

Can you share its % LC, Unexposed? I mean this compound: COC(=O)c1ccc(O)cc1 [Methylparaben, methyl-para-hydroxybenzoate] 75.2

Which % LC, Unexposed value is on record for `O=C(O)CC(O)(CC(=O)O)C(=O)O` ? 93.1

Source of measurements: patent US20210069143A1
